- TARGET UNDER TEST: HMG-CoAR (catalytic domain) (Homo sapiens)
- Construct: and finally, HMG-CoAR (catalytic domain) (2 μL); purchased Sigma Aldrich
- Sequence (P04035 426-888 limits assumed): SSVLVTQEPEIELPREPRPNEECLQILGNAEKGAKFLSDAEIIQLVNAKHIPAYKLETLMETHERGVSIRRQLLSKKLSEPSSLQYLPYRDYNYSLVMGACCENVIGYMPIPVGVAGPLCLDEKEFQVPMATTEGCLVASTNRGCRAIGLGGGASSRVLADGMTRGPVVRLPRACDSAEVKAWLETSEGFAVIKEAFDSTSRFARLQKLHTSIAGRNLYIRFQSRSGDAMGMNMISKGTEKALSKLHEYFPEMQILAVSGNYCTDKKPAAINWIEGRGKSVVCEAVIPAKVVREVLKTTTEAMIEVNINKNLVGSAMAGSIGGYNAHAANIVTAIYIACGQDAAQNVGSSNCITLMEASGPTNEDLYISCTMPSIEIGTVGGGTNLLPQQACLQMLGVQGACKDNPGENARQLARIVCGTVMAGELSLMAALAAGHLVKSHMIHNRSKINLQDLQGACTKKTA
- MEASUREMENT PROTOCOL: HMG-CoAR activity assay (Sigma kit, NADPH oxidation at 340 nm)
- Format: biochemical
- CONDITIONS: 10–500 μM tested, 37 °C
Quick list: IC50 per entry.
Give just the number in µM; leave the unit off.

CNCCCCCn1c(-c2ncc(-c3ccc4ccccc4c3)n2CC2CCCCC2)cnc1I	36.2
CNCCCCCn1c(-c2ncc(-c3ccc4ccccc4c3)n2CCCC(C)(C)C)cnc1I	147
CNCCCCCn1cncc1-c1ncc(-c2ccc3ccccc3c2)n1CC1CCCCC1	38.4

Moving on to the next molecule.
// query IC50 value for entry CNCCCCCn1cncc1-c1ncc(-c2ccc3ccccc3c2)n1CCCC(C)(C)C
40.5

###

- MEASUREMENT PROTOCOL: Solubility in PBS pH 7.4
- Format: physicochemical
- CONDITIONS: PBS buffer, pH 7.4, PBS, 37 °C
ASSAY ENDPOINT: solubility at 90 min

// query solubility at 90 min value for entry CNCCCCCn1c(-c2ncc(-c3ccc4ccccc4c3)n2CC2CCCCC2)cnc1I
~10 µM

###

- TARGET UNDER TEST: PCSK9/LDLR (Homo sapiens)
- Construct: purchased CircuLex (CycLex Co., Nagano, Japan)
- Sequence (Q8NBP7 153-692): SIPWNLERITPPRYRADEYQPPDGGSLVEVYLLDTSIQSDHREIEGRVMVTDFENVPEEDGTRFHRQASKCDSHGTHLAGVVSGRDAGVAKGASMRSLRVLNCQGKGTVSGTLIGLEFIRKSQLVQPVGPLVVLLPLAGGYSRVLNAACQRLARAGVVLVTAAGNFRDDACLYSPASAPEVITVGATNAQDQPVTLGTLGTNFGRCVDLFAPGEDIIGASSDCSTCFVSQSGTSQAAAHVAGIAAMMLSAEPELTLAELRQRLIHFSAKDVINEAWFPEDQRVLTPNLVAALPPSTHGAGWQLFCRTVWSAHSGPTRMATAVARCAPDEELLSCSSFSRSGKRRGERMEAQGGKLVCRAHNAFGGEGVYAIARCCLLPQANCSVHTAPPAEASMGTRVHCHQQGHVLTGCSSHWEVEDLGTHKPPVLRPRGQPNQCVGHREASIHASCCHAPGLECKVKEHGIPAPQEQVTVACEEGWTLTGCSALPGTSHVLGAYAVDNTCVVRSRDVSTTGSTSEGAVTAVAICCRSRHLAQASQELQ
- Sequence (Q8NBP7 31-152 limits assumed): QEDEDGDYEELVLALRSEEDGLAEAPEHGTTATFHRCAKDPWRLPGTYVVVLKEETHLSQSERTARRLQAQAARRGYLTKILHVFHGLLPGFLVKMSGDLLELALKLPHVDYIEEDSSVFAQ
- MEASUREMENT PROTOCOL: In vitro PCSK9-LDLR binding assay (CircuLex/CycLex kit)
- CONDITIONS: mean ± SD, three independent experiments; Hill slope fixed at −1
Quick list: pIC50 per entry.
Entry type: numeric. Quantity: pIC50, the -log10 of concentration in molar units.

Some solved entries appear below for comparison.
CNCCCCCn1c(-c2ncc(-c3ccc4ccccc4c3)n2CCCC(C)(C)C)cnc1I	9.10
C#Cc1ncc(-c2ncc(-c3ccc4ccccc4c3)n2CCCC(C)(C)C)n1CCCCCNC	8.05
CNCCCCCn1c(-c2ncc(-c3ccc4ccccc4c3)n2CC2CCCCC2)cnc1I	5.70

// query pIC50 value for entry C#Cc1ncc(-c2ncc(-c3ccc4ccccc4c3)n2CC2CCCCC2)n1CCCCCNC
5.93

// query pIC50 value for entry CNCCCCCn1cncc1-c1ncc(-c2ccc3ccccc3c2)n1CCCC(C)(C)C
5.70

// query pIC50 value for entry CNCCCCCn1cncc1-c1ncc(-c2ccc3ccccc3c2)n1CC1CCCCC1
5.35

###

- MEASUREMENT PROTOCOL: Solubility in PBS pH 7.4
- Type: physicochemical
- CONDITIONS: PBS buffer; pH 7.4, PBS, 37 °C, 90 min
ASSAY ENDPOINT: solubility at 1.5 h (µg/mL)
Give just the number in µg/mL; leave the unit off.

// query solubility at 1.5 h value for entry CNCCCCCn1c(-c2ncc(-c3ccc4ccccc4c3)n2CC2CCCCC2)cnc1I [Dim22]
5.8
